# Tested on: HeLa Kyoto
# EXPERIMENTAL PROTOCOL: solubility change mitosis vs G1/S (difference of NP-40 vs SDS log2 ratios) (log2 ratio difference); higher = more soluble in mitosis
QUANTITY NAME: solubility change mitosis (log2)
Lab note: record the figure alone, no unit after it.

MKPLVVFVLGGPGAGKGTQCARIVEKYGYTHLSAGELLRDERKNPDSQYGELIEKYIKEGKIVPVEITISLLKREMDQTMAANAQKNKFLIDGFPRNQDNLQGWNKTMDGKADVSFVLFFDCNNEICIERCLERGKSSGRSDDNRESLEKRIQTYLQSTKPIIDLYEEMGKVKKIDASKSVDEVFDEVVQIFDKEG [CMPK1]	0.065

We now examine a further sequence.
Recorded solubility change mitosis (log2) for MRPLDIVELAEPEEVEVLEPEEDFEQFLLPVINEMREDIASLTREHGRAYLRNRSKLWEMDNMLIQIKTQVEASEESALNHLQNPGDAAEGRAAKRCEKAEEKAKEIAKMAEMLVELVRRIEKSESS [MRFAP1] with HeLa Kyoto, please?
0.549

* * *

# Tested on: HeLa Kyoto;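 further: synchronized HeLa Kyoto cells (double thymidine block for G1/S, nocodazole release for mitosis), protein amounts in NP-40 versus SDS lysates quantified by mass spectrometry, three biological replicates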
# EXPERIMENTAL PROTOCOL: solubility change mitosis vs G1/S (difference of NP-40 vs SDS log2 ratios) (log2 ratio difference); higher = more soluble in mitosis
Readings of solubility change mitosis (log2) for the listed sequences
// print number alone

Worked examples, 3 sequences total:
MSETVICSSRATVMLYDDGNKRWLPAGTGPQAFSRVQIYHNPTANSFRVVGRKMQPDQQVVINCAIVRGVKYNQATPNFHQWRDARQVWGLNFGSKEDAAQFAAGMASALEALEGGGPPPPPALPTWSVPNGPSPEEVEQQKRQQPGPSEHIERRVSNAGGPPAPPAGGPPPPPGPPPPPGPPPPPGLPPSGVPAAAHGAGGGPPPAPPLPAAQGPGGGGAGAPGLAAAIAGAKLRKVSKQEEASGGPTAPKAESGRSGGGGLMEEMNAMLARRRKATQVGEKTPKDESANQEEPEARVPAQSESVRRPWEKNSTTLPRMKSSSSVTTSETQPCTPSSSDYSDLQRVKQELLEEVKKELQKVKEEIIEAFVQELRKRGSP [VASP]	0.0947
MAQAKINAKANEGRFCRSSSMADRSSRLLESLDQLELRVEALREAATAVEQEKEILLEMIHSIQNSQDMRQISDGEREELNLTANRLMGRTLTVEVSVETIRNPQQQESLKHATRIIDEVVNKFLDDLGNAKSHLMSLYSACSSEVPHGPVDQKFQSIVIGCALEDQKKIKRRLETLLRNIENSDKAIKLLEHSKGAGSKTLQQNAESRFN [BAG2]	0.474
MPDENIFLFVPNLIGYARIVFAIISFYFMPCCPLTASSFYLLSGLLDAFDGHAARALNQGTRFGAMLDMLTDRCSTMCLLVNLALLYPGATLFFQISMSLDVASHWLHLHSSVVRGSESHKMIDLSGNPVLRIYYTSRPALFTLCAGNELFYCLLYLFHFSEGPLVGSVGLFRMGLWVTAPIALLKSLISVIHLITAARNMAALDAADRAKKK [CDIPT]	-0.0289

Suppose we examine the sequence MASPSKAVIVPGNGGGDVTTHGWYGWVKKELEKIPGFQCLAKNMPDPITARESIWLPFMETELHCDEKTIIIGHSSGAIAAMRYAETHRVYAIVLVSAYTSDLGDENERASGYFTRPWQWEKIKANCPYIVQFGSTDDPFLPWKEQQEVADRLETKLHKFTDCGHFQNTEFHELITVVKSLLKVPA [RBBP9] ; what solubility change mitosis (log2) value has been reported?
0.00166

Would you mind telling me what solubility change mitosis (log2) value was observed for MAGAAEDARALFRAGVCAALEAWPALQIAVENGFGGVHSQEKAKWLGGAVEDYFMRNADLELDEVEDFLGELLTNEFDTVVEDGSLPQVSQQLQTMFHHFQRGDGAALREMASCITQRKCKVTATALKTARETDEDEDDVDSVEEMEVTATNDGAATDGVCPQPEPSDPDAQTIKEEDIVEDGWTIVRRKK [TSR2] ?
0.0427

What value of solubility change mitosis (log2) has been reported for the following sequence? MRRMWATQGLAVALALSVLPGSRALRPGDCEVCISYLGRFYQDLKDRDVTFSPATIENELIKFCREARGKENRLCYYIGATDDAATKIINEVSKPLAHHIPVEKICEKLKKKDSQICELKYDKQIDLSTVDLKKLRVKELKKILDDWGETCKGCAEKSDYIRKINELMPKYAPKAASARTDL [MANF]
0.0195
